target: PxylCSP18 (Plutella xylostella, UniProt A0ABQ7Q8H2, Q80P); assay: Fluorescence competitive binding assays with 1-NPN as probe
Sequence (A0ABQ7Q8H2 entry or part of it Q80P): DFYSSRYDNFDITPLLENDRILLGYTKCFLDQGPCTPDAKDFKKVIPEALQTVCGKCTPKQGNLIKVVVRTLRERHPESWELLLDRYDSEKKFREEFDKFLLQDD
measured attribute: pIC50
In plain terms, pIC50 is the concentration in mol/L turned into minus its base-10 logarithm.

The following compounds have reported results that may help.
- C=CC(O)CC (centres unmarked): 5.14
- CC(=O)/C=C/C1C(C)=CCCC1(C)C (centres unmarked): 5.38
- C=CCN=C=S [Allyl isothiocyanate]: 5.14
- CCCCN=C=S [Buty1 isothiocyanate]: 5.05
- CC(C)N=C=S [Isopropyl isothiocyanate]: 5.09
- CC/C=C\CCOC(C)=O [(Z)-3-Hexenyl acetate]: 5.04
- CCCCCCCCC=O: 5.10
- C=CC(C)(O)CCC=C(C)C (centres unmarked): 5.12

For CC1=CCC(C(C)C)=CC1 the compound record lists pIC50 as 5.92

For CC1=CC=C(C(C)C)CC1 the compound record lists pIC50 as 5.89

For C=CC(=C)CCC=C(C)C the compound record lists pIC50 as 5.87

###

target: PxylCSP18 (Plutella xylostella, UniProt A0ABQ7Q8H2, Q80P); test: Fluorescence competitive binding assays with 1-NPN as probe; conditions: 1-NPN 1 µM, PxylCSP18 1 µM, ligand 1 to 17 µM; concentration of ligand halving the initial fluorescence; N.D. = no significant binding detected; read-out: IC50
pIC50 for assorted compounds
In plain terms, pIC50 is the concentration in mol/L turned into minus its base-10 logarithm.

The following compounds have reported results that may help.
- CCC/C=C/CO [(E)-2-Hexenal-1-ol]: 5.12
- CCCCCC=O [Caproldehyde]: 5.13

Then there is this compound:
For C=C(C)[C@H]1CC=C(C)CC1 [Limonene] the compound record lists pIC50 as 5.73

###

target: PxylCSP18 (Plutella xylostella, UniProt A0ABQ7Q8H2, Q80P); test: Titration of PxylCSP18 with fluorescent probe 1-NPN (Scatchard plot); settings: 1 µM protein in 20 mM Tris–HCl pH 7.4, 1-NPN 1 to 17 µM, Scatchard plots; read-out: dissociation constant (K1-NPN)
measured attribute: Kd (µM)
Give a bare numeral; the unit µM is implied.

For c1ccc(Nc2cccc3ccccc23)cc1 [1-NPN, N-phenyl-1-naphthylamine] the compound record lists Kd as 9.85

###

biological target: PxylCSP18 (Plutella xylostella, UniProt A0ABQ7Q8H2, Q80P); experiment: Fluorescence competitive binding assays with 1-NPN as probe; conditions: Ki = [IC50]/(1 + [1-NPN]/K1-NPN); 1-NPN 1 µM, PxylCSP18 1 µM; N.D. = no significant binding detected
pKi for assorted compounds
In plain terms, pKi is the concentration in mol/L turned into minus its base-10 logarithm.

The following compounds have reported results that may help.
- C=C(C)[C@H]1CC=C(C)CC1: 5.83
- CCC/C=C/CO [(E)-2-Hexenal-1-ol]: 5.21

Then there is this compound:
For CCCCCC=O the compound record lists pKi as 5.22
